Target: Y55F CobB (P. mirabilis)
Experiment: ITC
Ends that are not written are not given here. * marks the point of attachment. Isobutyryl(2-OH) = CC(C)(O)C(=O)*
measurementLabel: pKd
// scale note: pKd = -log10(conc_M); give the bare number

## Input Entry YGDEQVK(Isobutyryl(2-OH))QWR [2-hydroxyisobutyrylated peptide [YGDEQVK(hib)QWR]] : reported pKd = ?
## Output 5.63

Just for reference, paper PMC6636992 is where these values come from.
